- TEST_TARGET: Delta-type opioid receptor (Mus musculus, UniProt P32300)
- Sequence (P32300 whole entry): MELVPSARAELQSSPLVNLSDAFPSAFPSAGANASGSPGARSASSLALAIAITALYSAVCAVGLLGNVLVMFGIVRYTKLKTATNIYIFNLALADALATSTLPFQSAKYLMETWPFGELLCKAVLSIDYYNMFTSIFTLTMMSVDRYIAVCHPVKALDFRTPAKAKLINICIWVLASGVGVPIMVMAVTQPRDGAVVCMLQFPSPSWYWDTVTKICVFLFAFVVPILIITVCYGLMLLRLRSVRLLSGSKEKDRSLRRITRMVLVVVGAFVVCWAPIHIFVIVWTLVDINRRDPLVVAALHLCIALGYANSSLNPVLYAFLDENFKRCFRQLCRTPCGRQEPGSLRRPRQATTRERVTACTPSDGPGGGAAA
- PROCEDURE_SUMMARY: Agonist activity at mouse DOR expressed in CHO cells after […] by [35S]GTPgammaS binding assay
Please respond with reported EC50 for every item in the list.
Write the value in nM as a bare number.

Quick check: EC50 on Delta-type opioid receptor (Mus musculus, UniProt P32300), item "O=C(N[C@H]1CC[C@@]2(O)[C@H]3Cc4ccc(O)c5c4[C@@]2(CCN3CC2CC2)[C@H]1O5)c1cc2ccccc2cn1" ? 98.6

// repeat for "COc1c(C(=O)N[C@H]2CC[C@@]3(O)[C@H]4Cc5ccc(O)c6c5[C@@]3(CCN4CC3CC3)[C@H]2O6)nc(Cl)c2ccccc12" and report 32.6

// repeat for "O=C(N[C@H]1CC[C@@]2(O)[C@H]3Cc4ccc(O)c5c4[C@@]2(CCN3CC2CC2)[C@H]1O5)c1cc2cc([N+](=O)[O-])ccc2cn1" and report 108

====

- TEST_TARGET: UniProt P42866
- Sequence (P42866 whole entry): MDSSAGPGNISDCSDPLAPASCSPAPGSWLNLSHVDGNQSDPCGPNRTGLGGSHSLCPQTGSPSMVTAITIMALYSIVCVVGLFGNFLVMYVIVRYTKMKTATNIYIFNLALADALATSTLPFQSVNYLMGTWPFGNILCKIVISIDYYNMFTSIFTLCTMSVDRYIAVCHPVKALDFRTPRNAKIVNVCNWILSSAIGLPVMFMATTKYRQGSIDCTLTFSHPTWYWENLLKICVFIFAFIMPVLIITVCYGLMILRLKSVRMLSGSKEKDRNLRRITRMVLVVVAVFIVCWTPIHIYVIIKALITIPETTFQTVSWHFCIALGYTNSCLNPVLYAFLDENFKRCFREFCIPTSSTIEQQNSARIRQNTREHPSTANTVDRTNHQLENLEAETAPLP
- PROCEDURE_SUMMARY: Displacement of [3H]naloxane from mouse MOR expressed in CHO cells after […]
- Assay type: cell-based
Please respond with reported Ki for every item in the list.
Write the value in nM as a bare number.

Quick check: Ki on UniProt P42866, item "COc1cc2cnc(C(=O)N[C@H]3CC[C@@]4(O)[C@H]5Cc6ccc(O)c7c6[C@@]4(CCN5CC4CC4)[C@H]3O7)cc2cc1OC" ? 13.4

// repeat for "O=C(N[C@H]1CC[C@@]2(O)[C@H]3Cc4ccc(O)c5c4[C@@]2(CCN3CC2CC2)[C@H]1O5)c1cc2cc([N+](=O)[O-])ccc2cn1" and report 5.7

// repeat for "CN(C)c1ccc2cc(C(=O)N[C@H]3CC[C@@]4(O)[C@H]5Cc6ccc(O)c7c6[C@@]4(CCN5CC4CC4)[C@H]3O7)ncc2c1" and report 4.4

// repeat for CN(C)c1ccc2c(c1)CN(C)C(C(=O)N[C@H]1CC[C@@]3(O)[C@H]4Cc5ccc(O)c6c5[C@@]3(CCN4CC3CC3)[C@H]1O6)C2 (stereo not given in full) and report 1.79

// repeat for "O=C(N[C@H]1CC[C@@]2(O)[C@H]3Cc4ccc(O)c5c4[C@@]2(CCN3CC2CC2)[C@H]1O5)c1cc2ccc([N+](=O)[O-])cc2cn1" and report 3.6

====

- TEST_TARGET: UniProt P33534
- Sequence (P33534 whole entry): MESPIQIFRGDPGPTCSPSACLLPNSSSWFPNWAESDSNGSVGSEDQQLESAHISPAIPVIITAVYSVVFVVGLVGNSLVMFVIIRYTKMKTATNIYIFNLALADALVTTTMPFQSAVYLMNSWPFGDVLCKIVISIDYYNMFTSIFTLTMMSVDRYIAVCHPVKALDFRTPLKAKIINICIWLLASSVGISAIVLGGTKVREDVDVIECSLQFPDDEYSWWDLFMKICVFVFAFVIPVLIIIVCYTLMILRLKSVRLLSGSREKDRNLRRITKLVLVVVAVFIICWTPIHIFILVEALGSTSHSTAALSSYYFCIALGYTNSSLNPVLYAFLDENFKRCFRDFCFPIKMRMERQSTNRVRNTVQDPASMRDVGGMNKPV
- PROCEDURE_SUMMARY: Displacement of [3H]diprenorphine from mouse KOR expressed in CHO cells after […]
pKi: −log10 of the molar value.
Everything with pKi lower than 8 is condition not met; everything else, including exactly 8, is condition met.

Determine whether this compound has pKi no lower than 8: "O=C(N[C@H]1CC[C@@]2(O)[C@H]3Cc4ccc(O)c5c4[C@@]2(CCN3CC2CC2)[C@H]1O5)c1cc2cc([N+](=O)[O-])ccc2cn1" condition not met

// repeat for CN(C)c1ccc2c(c1)CN(C)C(C(=O)N[C@H]1CC[C@@]3(O)[C@H]4Cc5ccc(O)c6c5[C@@]3(CCN4CC3CC3)[C@H]1O6)C2 (stereo not given in full) and report condition met

// repeat for "CN(C)c1ccc2cc(C(=O)N[C@H]3CC[C@@]4(O)[C@H]5Cc6ccc(O)c7c6[C@@]4(CCN5CC4CC4)[C@H]3O7)ncc2c1" and report condition not met

// repeat for "COc1cc2cnc(C(=O)N[C@H]3CC[C@@]4(O)[C@H]5Cc6ccc(O)c7c6[C@@]4(CCN5CC4CC4)[C@H]3O7)cc2cc1OC" and report condition not met

The measured values listed here are drawn from ChEMBL document CHEMBL3400112.
